- System: 598228-144-R-J1-PDC complex spheroids, viability;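 note: spheroids exposed to compounds for seven days before readout; 100% = DMSO vehicle control wells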
- assay.notes: Anticancer human tumor 598228-144-R-J1-PDC patient-derived serous endometrial adenocarcinoma cell line growth inhibition [CLK]
- assay.context: second compound 10 µM; first compound 1 µM; stronger effect = lower value
property.name: viability, T/C (%)
Reply numerically in %, unit not repeated.

So what does the record say about viability, T/C for C=CC(=O)N1CCN(c2nc(=O)n(-c3c(C)ccnc3C(C)C)c3nc(-c4c(O)cccc4F)c(F)cc23)C(C)C1 (stereo not drawn) + CN1CCN(c2cc(C(=O)Nc3cc4cc(-c5cnn(C)c5)ccc4cn3)ccn2)CC1 ?
1.48

And the next one, CC1(C)CCC(CN2CCN(c3ccc(C(=O)NS(=O)(=O)c4ccc(NCC5CCOCC5)c([N+](=O)[O-])c4)c(Oc4cnc5[nH]ccc5c4)c3)CC2)=C(c2ccc(Cl)cc2)C1 + CN1CCN(c2cc(C(=O)Nc3cc4cc(-c5cnn(C)c5)ccc4cn3)ccn2)CC1 ?
0.79

And the next one, C=CC(=O)N1CCN(c2nc(=O)n(-c3c(C)ccnc3C(C)C)c3nc(-c4c(O)cccc4F)c(F)cc23)C(C)C1 (stereo not drawn) + CNC(=O)c1ccc(Nc2nc(OC3CCCC3)c3c(-c4ccc5nc(C)oc5c4)c[nH]c3n2)c(OC)c1 ?
104
